B1: PPFIA4 (parent)
chain: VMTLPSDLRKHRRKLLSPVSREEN

- Variants of: B1
- assay-method-text: protein stability index of a GFP-peptide fusion (GPS, HEK-293T) (PSI 1-6); higher = more stable;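 also: lentivirally expressed fusions sorted by FACS into six bins by GFP to DsRed ratio, PSI derived from sequencing read proportions per bin multiplied by bin number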
- cond: c terminus: a fixed tail appended
Quick reference: protein stability index of the listed items.
Answer with the value's number alone.

Consider the reported protein stability index for these variants:
VMTLKSDLRKHRRKLLSPVSREEN [P5K] :: 3.4
VMTLPSDLRKHRRKLLSPVSREEH [N24H] :: 3.88
VMTSPSDLRKHRRKLLSPVSREEN [L4S] :: 3.94
VMTLPSDLRKIRRKLLSPVSREEN [H11I] :: 3.12
VMTLPSDLRKHRRKLLSPVHREEN [S20H] :: 3.18

For VMTLPSLLRKHRRKLLSPVSREEN [D7L] the variant record lists protein stability index as 2.33

For VMTLPSDLRDHRRKLLSPVSREEN [K10D] the variant record lists protein stability index as 4.32

For VMTFPSDLRKHRRKLLSPVSREEN [L4F] the variant record lists protein stability index as 3.4

For VMTLPSDTRKHRRKLLSPVSREEN [L8T] the variant record lists protein stability index as 4.24

For VMTLPSDLRKHRRKLLSPVSRETN [E23T] the variant record lists protein stability index as 3.04

For VMTLPSDLRKHRRKLLSPISREEN [V19I] the variant record lists protein stability index as 3.8

For VMTLPSDLRKHRRKHLSPVSREEN [L15H] the variant record lists protein stability index as 4.02

For VMTLPSDLRPHRRKLLSPVSREEN [K10P] the variant record lists protein stability index as 4.05

For VMTLPSSLRKHRRKLLSPVSREEN [D7S] the variant record lists protein stability index as 2.98

For VMTLPSDLRHHRRKLLSPVSREEN [K10H] the variant record lists protein stability index as 3.58

For VMTLPSDLRKKRRKLLSPVSREEN [H11K] the variant record lists protein stability index as 3.44

For VMTLPSDLRKHRRKLLSRVSREEN [P18R] the variant record lists protein stability index as 3.08

For VMTLPSDLRKHRRKLLSPASREEN [V19A] the variant record lists protein stability index as 4.06

These measurements were taken from the supplement of paper PMC10567573.
